# System: Botrytis cinerea
# Protocol details: Antifungal activity against Botryotinia fuckeliana ITEM-966 after 72 hr by broth dilution method
# Format: functional
# Condition details: ITEM-966, 72 h
Measured MIC, listed per entry.
Write it as a number; the unit µg/mL goes unstated.

Reference set (3 entries):
Consider CCCCCCC(C)C/C(C)=C\C(/C=C(C)/C=C/C(O)C(C)(C)c1cc(O)c([C@@H]2O[C@H](CO)C[C@H](O)[C@H]2O)c(=O)o1)CO (some centres undefined) . Its measured MIC is 6.25

Consider CCCCCCC(C)CC(C)CC(CO)CC(C)CCC(O)C(C)(C)c1cc(O)c([C@@H]2O[C@H](CO)C[C@H](O)[C@H]2O)c(=O)o1 (some centres undefined) . Its measured MIC is 50

Consider CCCCCCC(C)C/C(C)=C\C(C)/C=C(C)/C=C/C(O)C(C)(C)c1cc(O)c([C@@H]2O[C@H](CO)C[C@H](O)[C@H]2O)c(=O)o1 (some centres undefined) . Its measured MIC is 1.56

Next:
Consider CCCCCCC(C)C/C(C)=C\C(/C=C(C)/C=C/C(O)C(C)(C)c1cc(OC)c([C@@H]2O[C@H](CO)C[C@H](O)[C@H]2O)c(=O)o1)CO (some centres undefined) . Its measured MIC is 50

Reference for the values: ChEMBL document CHEMBL3044782
